tested system: Melatonin receptor type 1C (Xenopus laevis, UniProt P49219)
Sequence (P49219 whole entry): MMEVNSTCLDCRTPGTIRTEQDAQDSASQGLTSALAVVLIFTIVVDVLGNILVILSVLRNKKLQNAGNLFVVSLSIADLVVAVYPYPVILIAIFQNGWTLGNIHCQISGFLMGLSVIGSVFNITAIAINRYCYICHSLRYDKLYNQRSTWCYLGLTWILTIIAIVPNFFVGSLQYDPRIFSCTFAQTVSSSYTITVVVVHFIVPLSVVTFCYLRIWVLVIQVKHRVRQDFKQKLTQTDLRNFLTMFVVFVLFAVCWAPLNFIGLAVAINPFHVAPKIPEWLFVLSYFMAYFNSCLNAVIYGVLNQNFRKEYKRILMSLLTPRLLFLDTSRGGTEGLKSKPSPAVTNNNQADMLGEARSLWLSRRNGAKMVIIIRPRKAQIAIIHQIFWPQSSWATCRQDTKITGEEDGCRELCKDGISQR
procedure summary: Agonist activity at Melatonin receptor type 1C in Xenopus laevis melanophores assessed as induction of pigment aggregation response by microtiter plate reader based absorbance detection assay
pEC50: −log10 of the molar value.
endpoint label: pEC50

Entry under test: CCC(=O)NCCCc1ccc(F)c(OC)c1 . Its pEC50 was 8.96

Entry under test: CCCC(=O)NCCCc1ccc(OC)c(F)c1 . Its pEC50 was 6.38

Entry under test: CCC(=O)NCCc1cc(OC)ccc1F . Its pEC50 was 6.10

P: CCCC(=O)NCCCc1cc(OC)ccc1F
Q: COc1ccc(CNC(C)=O)cc1F
R: CCC(=O)NCCCc1ccc(OC)c(F)c1
S: COc1ccc(F)c(C(C)(C)CNC(C)=O)c1
Exercise: Hey, quick one: sort these by pEC50, largest value first please. Rank them, then answer with their labels in that order.
Key: P, S, R, Q

* * *

tested system: Melatonin receptor type 1C (Xenopus laevis)
Sequence (whole entry): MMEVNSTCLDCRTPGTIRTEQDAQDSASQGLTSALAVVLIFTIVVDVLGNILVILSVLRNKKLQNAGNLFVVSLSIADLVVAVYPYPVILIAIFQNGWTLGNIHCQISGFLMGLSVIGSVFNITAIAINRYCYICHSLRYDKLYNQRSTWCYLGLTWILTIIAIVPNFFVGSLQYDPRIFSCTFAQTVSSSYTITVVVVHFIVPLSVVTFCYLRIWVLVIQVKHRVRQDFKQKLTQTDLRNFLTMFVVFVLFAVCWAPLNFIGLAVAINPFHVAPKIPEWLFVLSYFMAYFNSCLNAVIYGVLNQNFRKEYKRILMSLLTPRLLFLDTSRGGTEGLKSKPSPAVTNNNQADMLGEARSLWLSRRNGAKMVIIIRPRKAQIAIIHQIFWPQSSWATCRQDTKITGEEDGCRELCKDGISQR
procedure summary: Antagonist activity at Melatonin receptor type 1C in Xenopus laevis melanophores assessed as inhibition of melatonin-induced pigment aggregation response pre-incubated 60 mins before melatonin addition by microtiter plate reader based absorbance detection assay
Set-up: concentration or dose not given beside the values
endpoint label: inhibition (%)

Example entries begin here.
Entry under test: CCCC(=O)NCCc1ccc(OC)c(F)c1 . Its inhibition was 48

Entry under test: CCCC(=O)NCCCc1ccc(OC)c(F)c1 . Its inhibition was 19

Entry under test: CCC(=O)NCc1ccc(OC)c(F)c1 . Its inhibition was 24

Entry under test: CCCC(=O)NCc1ccc(OC)c(F)c1 . Its inhibition was 37

A: CCC(=O)NCc1cc(OC)ccc1F
B: CCCC(=O)NCc1cc(OC)ccc1F
C: CCC(=O)NCCCc1ccc(OC)c(F)c1
D: CC(=O)NCCc1c(Cc2ccccc2)[nH]c2ccccc12
Exercise: Hey, quick one: sort these by inhibition, largest value first please. Rank them, then answer with their labels in that order.
Key: D, B, A, C
(D: 100%, B: 44%, A: 23%, C: 8%)

* * *

tested system: Melatonin receptor type 1C (Xenopus laevis, UniProt P49219)
procedure summary: Agonist activity at Melatonin receptor type 1C in Xenopus laevis melanophores assessed as induction of pigment aggregation response by microtiter plate reader based absorbance detection assay
endpoint label: EC50 (nM)

Example entries begin here.
Lab note: molecule CCC(=O)NCCc1ccc(OC)c(F)c1 tested on Melatonin receptor type 1C (Xenopus laevis, UniProt P49219); recorded EC50 was 1350

Lab note: molecule CCCC(=O)NCCc1ccc(OC)c(F)c1 tested on Melatonin receptor type 1C (Xenopus laevis, UniProt P49219); recorded EC50 was 1200

Lab note: molecule COc1ccc(C(C)(C)CNC(C)=O)cc1F tested on Melatonin receptor type 1C (Xenopus laevis, UniProt P49219); recorded EC50 was 81.3

Lab note: molecule COc1ccc(F)c(CNC(C)=O)c1 tested on Melatonin receptor type 1C (Xenopus laevis, UniProt P49219); recorded EC50 was 1950

Lab note: molecule COc1ccc(F)c(CCCNC(C)=O)c1 tested on Melatonin receptor type 1C (Xenopus laevis, UniProt P49219); recorded EC50 was 20.4

Lab note: molecule COc1cc(C(C)(C)CNC(C)=O)ccc1F tested on Melatonin receptor type 1C (Xenopus laevis, UniProt P49219); recorded EC50 was 1.82

Lab note: molecule CCCC(=O)NC(C)Cc1ccc(F)c(OC)c1 (centres undefined) tested on Melatonin receptor type 1C (Xenopus laevis, UniProt P49219); recorded EC50 was 105

Lab note: molecule CCC(=O)NCc1ccc(F)c(OC)c1 tested on Melatonin receptor type 1C (Xenopus laevis, UniProt P49219); recorded EC50 was 2880

Lab note: molecule COc1cc(CNC(C)=O)ccc1F tested on Melatonin receptor type 1C (Xenopus laevis, UniProt P49219); recorded EC50 was 2090

Lab note: molecule CCC(=O)NCC(C)(C)c1cc(OC)ccc1F tested on Melatonin receptor type 1C (Xenopus laevis, UniProt P49219); recorded EC50 was 269

I: CCCC(=O)NCCc1cc(OC)ccc1F
II: COc1ccc(CCCNC(C)=O)cc1F
Exercise: Pick one, I or II : lowest reported EC50. Write down the label attached to your selection.
Key: I
(I: 251 nM, II: 1820 nM)

P: CCC(=O)NCC(C)(C)c1ccc(F)c(OC)c1
Q: CCC(=O)NCCCc1cc(OC)ccc1F
Exercise: Pick one, P or Q : lowest reported EC50. Write down the label attached to your selection.
Key: P
(P: 0.537 nM, Q: 3.72 nM)

* * *

tested system: Melatonin receptor type 1C (Xenopus laevis, UniProt P49219)
Sequence (P49219 whole entry): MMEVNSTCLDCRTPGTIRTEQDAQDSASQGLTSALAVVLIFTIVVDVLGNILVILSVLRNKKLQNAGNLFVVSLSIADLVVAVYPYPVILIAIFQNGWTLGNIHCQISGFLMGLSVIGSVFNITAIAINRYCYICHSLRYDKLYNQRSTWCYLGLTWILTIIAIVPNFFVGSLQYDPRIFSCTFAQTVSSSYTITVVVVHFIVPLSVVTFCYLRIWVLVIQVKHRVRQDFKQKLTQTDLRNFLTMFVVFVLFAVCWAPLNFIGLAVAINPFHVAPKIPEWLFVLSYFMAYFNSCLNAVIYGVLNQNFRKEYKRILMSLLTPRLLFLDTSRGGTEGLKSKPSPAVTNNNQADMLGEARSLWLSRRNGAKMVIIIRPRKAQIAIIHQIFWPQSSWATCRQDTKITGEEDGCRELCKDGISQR
procedure summary: Agonist activity at Melatonin receptor type 1C in Xenopus laevis melanophores assessed as induction of pigment aggregation response by microtiter plate reader based absorbance detection assay
pEC50: −log10 of the molar value.
endpoint label: pEC50

Example entries begin here.
Entry under test: CCC(=O)NCc1ccc(OC)c(F)c1 . Its pEC50 was 5.98

Entry under test: CCCC(=O)NCC(C)(C)c1ccc(F)c(OC)c1 . Its pEC50 was 10.64

1: COc1ccc2[nH]cc(CCNC(C)=O)c2c1
2: COc1cc(CCCNC(C)=O)ccc1F
3: CCCC(=O)NCc1ccc(OC)c(F)c1
Exercise: Hey, quick one: sort these by pEC50, largest value first please. Rank them, then answer with their labels in that order.
Key: 1, 2, 3

* * *

tested system: UniProt P49219
procedure summary: Agonist activity at Melatonin receptor type 1C in Xenopus laevis melanophores assessed as induction of pigment aggregation response by microtiter plate reader based absorbance detection assay relative to melatonin
endpoint label: Efficacy (%)

Entry under test: CCC(=O)NCCCc1ccc(OC)c(F)c1 . Its Efficacy was 78

Entry under test: COc1ccc(CNC(C)=O)cc1F . Its Efficacy was 77

Entry under test: CCC(=O)NCC(C)(C)c1cc(OC)ccc1F . Its Efficacy was 100

Entry under test: COc1ccc(CCCNC(C)=O)cc1F . Its Efficacy was 79

Entry under test: CCCC(=O)NCC(C)(C)c1cc(OC)ccc1F . Its Efficacy was 100

A: COc1cc(CCCNC(C)=O)ccc1F
B: CCCC(=O)NCc1cc(OC)ccc1F
Exercise: Just curious, which one has the larger Efficacy reading, A or B ? Write down the label attached to your selection.
Key: A

a: CCC(=O)NCCc1ccc(OC)c(F)c1
b: CCCC(=O)NCCc1ccc(OC)c(F)c1
Exercise: Just curious, which one has the larger Efficacy reading, a or b ? Write down the label attached to your selection.
Key: a

I: COc1ccc(F)c(CCCNC(C)=O)c1
II: CCCC(=O)NCc1ccc(OC)c(F)c1
Exercise: Pick one, I or II : lowest reported Efficacy. Write down the label attached to your selection.
Key: II
(II: 57%, I: 100%)
